- testSystem: Genome polyprotein (Hepatitis C virus genotype 1a (isolate H77), UniProt P27958)
- Sequence (P27958 1027-1657 limits assumed): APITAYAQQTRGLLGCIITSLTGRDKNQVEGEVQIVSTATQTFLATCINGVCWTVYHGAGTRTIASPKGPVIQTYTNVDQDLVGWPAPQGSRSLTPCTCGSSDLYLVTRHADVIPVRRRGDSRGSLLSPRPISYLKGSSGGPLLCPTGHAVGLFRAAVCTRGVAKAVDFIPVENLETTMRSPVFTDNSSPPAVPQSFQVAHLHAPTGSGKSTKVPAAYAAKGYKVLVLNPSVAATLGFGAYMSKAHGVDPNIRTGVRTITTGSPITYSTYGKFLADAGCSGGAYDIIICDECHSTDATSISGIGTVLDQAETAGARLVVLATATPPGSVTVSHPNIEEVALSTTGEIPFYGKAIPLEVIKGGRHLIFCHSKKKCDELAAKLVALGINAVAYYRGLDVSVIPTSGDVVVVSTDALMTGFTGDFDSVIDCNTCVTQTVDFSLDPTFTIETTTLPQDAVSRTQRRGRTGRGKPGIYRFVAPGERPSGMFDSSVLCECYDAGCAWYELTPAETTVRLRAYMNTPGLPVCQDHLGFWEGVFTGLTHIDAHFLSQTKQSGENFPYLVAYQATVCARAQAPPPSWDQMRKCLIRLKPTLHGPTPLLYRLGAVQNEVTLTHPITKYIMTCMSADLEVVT
- methodDescription: Continuous Spectrophotometric Assay
parameterMeasured: pKi
To interpret pKi, take it as minus log10 of a concentration measured in moles per litre.

In the examples that follow, each entry is paired with its recorded pKi.
>  <compound>
C=CCNC(=O)C(=O)[C@@H]1CCCCCCCCC[C@H](NC(=O)N[C@H](CN2C(=O)CN(C)CC2=O)C(C)(C)C)C(=O)N2C[C@H]3[C@@H]([C@H]2C(=O)N1)C3(C)C

>  <testSystem>
Genome polyprotein (Hepatitis C virus genotype 1a (isolate H77), UniProt P27958)

>  <pKi>
8.40

$$$$
>  <compound>
C=CCNC(=O)C(=O)[C@@H]1CCCCCCCCC[C@H](NC(=O)N[C@H](CN2C(=O)c3ccccc3C2=O)C(C)(C)C)C(=O)N2C[C@H]3[C@@H]([C@H]2C(=O)N1)C3(C)C

>  <testSystem>
Genome polyprotein (Hepatitis C virus genotype 1a (isolate H77), UniProt P27958)

>  <pKi>
7.80

$$$$
>  <compound>
C=CCNC(=O)C(=O)[C@@H]1CCCCCCCCC[C@H](NC(=O)N[C@H](CN2Cc3sccc3S2(=O)=O)C(C)(C)C)C(=O)N2C[C@H]3[C@@H]([C@H]2C(=O)N1)C3(C)C

>  <testSystem>
Genome polyprotein (Hepatitis C virus genotype 1a (isolate H77), UniProt P27958)

>  <pKi>
8.15

$$$$
>  <compound>
C=CCNC(=O)C(=O)[C@@H]1CCCCCCCCC[C@H](NC(=O)N[C@H](CN2C(=O)CC(C)(C)CC2=O)C(C)(C)C)C(=O)N2C[C@H]3[C@@H]([C@H]2C(=O)N1)C3(C)C

>  <testSystem>
Genome polyprotein (Hepatitis C virus genotype 1a (isolate H77), UniProt P27958)

>  <pKi>
8.70

$$$$

Now consider the entry below.
Need pKi of `C=CCNC(=O)C(=O)[C@@H]1CCCCCCCCC[C@H](NC(=O)N[C@H](CN2CCC(C)(C)CC2=O)C(C)(C)C)C(=O)N2C[C@H]3[C@@H]([C@H]2C(=O)N1)C3(C)C` , thanks.
8.70
